test system: Serine/threonine-protein kinase B-raf (Homo sapiens), P15056 [V600E]; assay: Inhibition of BRAF V600E mutant (unknown origin) at 1 uM by KINOMEscanning assay relative to control; values are per cent of control
Sequence (P15056 whole entry V600E): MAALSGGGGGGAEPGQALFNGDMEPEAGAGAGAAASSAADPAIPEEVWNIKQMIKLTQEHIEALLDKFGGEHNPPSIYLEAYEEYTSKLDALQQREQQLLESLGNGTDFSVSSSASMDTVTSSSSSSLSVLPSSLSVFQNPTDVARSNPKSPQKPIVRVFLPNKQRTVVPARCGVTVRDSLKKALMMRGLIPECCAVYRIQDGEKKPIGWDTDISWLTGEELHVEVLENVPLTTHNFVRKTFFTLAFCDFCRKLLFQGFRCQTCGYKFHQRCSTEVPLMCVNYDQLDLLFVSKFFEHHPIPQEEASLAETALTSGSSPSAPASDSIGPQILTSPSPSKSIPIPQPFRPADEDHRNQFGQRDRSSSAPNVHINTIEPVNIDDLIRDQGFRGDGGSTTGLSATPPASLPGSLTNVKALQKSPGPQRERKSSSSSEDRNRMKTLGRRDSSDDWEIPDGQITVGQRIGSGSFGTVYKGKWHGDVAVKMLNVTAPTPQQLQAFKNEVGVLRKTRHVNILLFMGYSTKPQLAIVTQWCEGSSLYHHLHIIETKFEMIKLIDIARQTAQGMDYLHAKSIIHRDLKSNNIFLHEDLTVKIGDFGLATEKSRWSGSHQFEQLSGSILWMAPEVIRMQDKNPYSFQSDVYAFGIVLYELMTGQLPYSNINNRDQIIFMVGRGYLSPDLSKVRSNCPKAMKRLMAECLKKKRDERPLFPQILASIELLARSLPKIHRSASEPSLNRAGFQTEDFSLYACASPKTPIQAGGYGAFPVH
VALUE_TYPE: residual activity (%)
Hi! Could you send only the number? It should be in %, unit omitted.

Check out these entries, answers already filled in.
COc1ccc(-c2cnc3[nH]cc(-c4ccc(OC)c(OC)c4)c3c2)cc1N
78
COc1ccc(-c2c[nH]c3ncc(-c4cc(OC)c(OC)c(OC)c4)cc23)cc1OC
82
COc1cc(-c2c[nH]c3ncc(-c4cccc(N)c4)cc23)cc(OC)c1OC
34

Input: Look at this molecule and give its reported residual activity. `COc1ccc(-c2c[nH]c3ncc(-c4ccc(C(=O)N5CCOCC5)c(N)c4)cc23)cc1OC`
Output: 66

Input: Try the molecule `COc1ccc(-c2cnc3[nH]cc(-c4ccc(OC)c(OC)c4)c3c2)cc1OC`
Output: 88
